- method-notes: GSK in-house kinetic solubility assay (CAD)
- Type: physicochemical
- recorded-conditions: kinetic from dmso stock, charged aerosol detector
readout: solubility (µg/mL)
Please give a number only; it is taken to be in µg/mL.

Enquiry: Find the recorded solubility belonging to Cc1ncccc1[C@H]1C[C@@H](c2cccc3nc(N)ccc23)Nc2c(F)cnn21 [GSK137] and report it.
Return: 128

----------
- method-notes: Pharmacokinetics in blood during the immunization study
- Assay type: in vivo
- recorded-conditions: male, CD1, mouse, whole blood, po; 15 mg/kg orally TID, daily steady state, from simulated profiles
readout: AUC (ng·h/mL)
The figure you give is taken to be in ng·h/mL; do not add the unit.

Enquiry: Reported AUC, compound Cc1ncccc1[C@H]1C[C@@H](c2cccc3nc(N)ccc23)Nc2c(F)cnn21 : ____
Return: 3400

----------
- target: human BCL6 BTB-POZ domain (SMRT co-repressor peptide) (Homo sapiens, UniProt P41182, C67R/C84N/C8Q)
- Construct: BCL6-Flag-6H-Avi (5-129) C8Q, C67R, C84N proteins; Flag (C); 6H (His6) (C)
- method-notes: BCL6 TR-FRET assay, SMRT peptide displacement
- recorded-conditions: from pIC50 = 8; read-out: affinity for the BCL6 BTB-POZ domain
readout: pIC50
Schema: pIC50 number; meaning minus log10 of the concentration expressed in molar units.

Enquiry: Value lookup for pIC50; key = Cc1ncccc1[C@H]1C[C@@H](c2cccc3nc(N)ccc23)Nc2c(F)cnn21 [GSK137]
Return: 8.00

----------
- method-notes: Pharmacokinetics in blood during the immunization study
- Format: in vivo
- recorded-conditions: male, CD1, mouse, whole blood, po; 30 mg/kg orally TID, day 8
readout: Tmax (min)
Give your result in min as a bare value.

Enquiry: GET /values?readout=Tmax&item= Cc1ncccc1[C@H]1C[C@@H](c2cccc3nc(N)ccc23)Nc2c(F)cnn21 [GSK137]
Return: 30
